Each recorded value in this set is attributed to PubChem BioAssay (NCATS).

TEST_DETAILS: Viability qHTS for spleen associated tyrosine kinase inhibitor (SYKi) naive MV4-11 cells (AID 1963823); further: nearly all actives have a fitted effect of over 40% in size; further: potency means the concentration at half of the fitted maximal effect
CONDITIONS: MV4-11 AML viability, CellTiter-Glo luminescence, 72 h; series mostly up to 45 µM
Results filed as inconclusive are left out. Calls of active or inactive are those of the source. The call rests on the fitted dose curve; in most records, active means well fitted cell-killing curve with a large enough effect; inconclusive means small, poorly fitted or top-dose-only effect, or effect the other way; inactive means no such curve, though single readings can be large or run the other way.
QUANTITY_MEASURED: Potency

NC(=O)/C(=C/n1cnc(-c2cc(C(F)(F)F)cc(C(F)(F)F)c2)n1)c1cncnc1 : 0.132 µM (active)
O=C(CCC1CCN(Cc2ccccc2)CC1)c1ccc2c(c1)NCCCC2 : 23.1 µM (active)
COc1cc(Nc2nc3c(s2)CCCC3c2ccc(F)cc2)ccc1-n1cnc(C)c1 (stereo not given) : 3.66 µM (active)
CC(=O)O[C@@H]1[C@H](OC(C)=O)C[C@@]2(C)C(CC[C@@H](C)[C@]23Cc2c(O)cc4c(c2O3)CN([C@@H](CCC(=O)O)C(=O)O)C4=O)C1(C)C (stereo not given in full) : inactive
CCCCCN(CCCOC)C(=O)C(CCC(=O)O)NC(=O)c1ccc(Cl)c(Cl)c1 (stereo not given) : inactive
CC(=O)C1=C(O)C=C2Oc3c(C(C)=O)c(O)c(C)c(O)c3[C@]2(C)C1=O : inactive

Field: Potency. Fill in for each record below.
1. NC(=O)[C@H]1CCCCc2c1[nH]c1ccc(Cl)cc21
2. CC(=O)O[C@H]1CC(C)(C)CC2[C@@]13[C@H](O)C[C@]1(C)[C@@]2(CCC2[C@@]4(C)CC[C@H](O[C@@H]5OC[C@H](O[C@@H]6O[C@H](CO)[C@@H](O)[C@H](O)[C@H]6O[C@@H]6OC[C@@H](O)[C@H](O)[C@H]6O)[C@H](O)[C@H]5O[C@@H]5O[C@H](CO)[C@@H](O)[C@H](O)[C@H]5O)C(C)(C)C4CC[C@]21C)O[C@@H]3O (stereo not given in full)
3. CN[C@H](CNC(=O)N1CCC[C@@H]([C@@H](OCCNC(=O)OC)c2cccc(Cl)c2)C1)C[C@H]1CCCOC1

1: inactive; 2: 0.873 µM (active); 3: inactive

Field: Potency. Fill in for each record below.
1. Cc1cnc(C(=O)O)c[n+]1[O-]
2. CC(C)(C)c1nnc(NS(=O)(=O)c2ccccc2)s1
3. C[C@@H](Oc1cc(-n2cnc3ccc(OC4CCN(C)CC4)cc32)sc1C(N)=O)c1ccccc1C(F)(F)F
4. O=C(Oc1ccccc1C(=O)O)c1ccccc1O

1: inactive; 2: inactive; 3: 0.0184 µM (active); 4: inactive

Field: Potency. Fill in for each record below.
1. COc1cc2c(cc1OC)CN(CCc1ccc(NC(=O)c3cc(OC)c(OC)cc3NC(=O)c3cnc4ccccc4c3)cc1)CC2
2. Cc1onc(-c2ccccc2)c1C(=O)Cl
3. Cc1ccc(-c2ccccc2C#N)cc1
4. COc1ccccc1C(=O)Nc1cc2c(cc1N1CCCCC1)n(C)c(=O)n2C
5. CC1(C)C[C@@H]2[C@H](C1)[C@@]1(C)C[C@]13C(O)OC[C@]3(O)[C@H]2O (stereo not given in full)
6. O=C(O)[C@H](O)c1ccccc1

1: inactive; 2: inactive; 3: inactive; 4: 14.8 µM (active); 5: inactive; 6: inactive

Query: Potency; subject: "CSC(=O)OCC1=C[C@@H]2OC(=O)C3=CO[C@@H](O[C@@H]4O[C@H](CO)[C@@H](O)[C@H](O)[C@H]4O)[C@H]1[C@@H]32"
inactive
